- experimental.target: T1, biotinylated hTfR1 (Acro Bio p/n TFR-H82E5) (human, UniProt P02786 89-760, biotinylated; site not stated)
- T1 construct: Bought reagent of the BLI assay
- T1 sequence (P02786 89-760 limits assumed): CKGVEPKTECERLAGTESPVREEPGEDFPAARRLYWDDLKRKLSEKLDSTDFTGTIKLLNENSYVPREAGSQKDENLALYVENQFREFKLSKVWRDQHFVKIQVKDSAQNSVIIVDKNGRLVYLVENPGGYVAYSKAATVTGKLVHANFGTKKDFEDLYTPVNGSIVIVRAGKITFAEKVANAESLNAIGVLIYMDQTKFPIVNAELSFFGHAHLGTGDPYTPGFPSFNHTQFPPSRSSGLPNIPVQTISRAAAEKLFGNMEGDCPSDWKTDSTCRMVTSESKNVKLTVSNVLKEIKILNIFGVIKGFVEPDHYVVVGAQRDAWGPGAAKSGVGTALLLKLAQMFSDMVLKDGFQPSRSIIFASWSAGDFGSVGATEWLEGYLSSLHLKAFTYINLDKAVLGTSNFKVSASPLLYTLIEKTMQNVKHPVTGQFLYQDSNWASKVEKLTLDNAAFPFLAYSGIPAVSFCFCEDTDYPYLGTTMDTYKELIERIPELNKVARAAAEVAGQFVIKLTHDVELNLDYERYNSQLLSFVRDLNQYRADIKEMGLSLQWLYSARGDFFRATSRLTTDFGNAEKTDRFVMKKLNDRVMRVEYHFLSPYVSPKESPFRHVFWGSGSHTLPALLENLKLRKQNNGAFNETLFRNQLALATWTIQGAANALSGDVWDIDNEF
- measurement.notes: BLI, Octet RH16, biotinylated TfR1 on streptavidin sensor; Fab-siRNA conjugate
measured.attribute: Kd (nM)
Answer format: numeric, nM implied, no suffix.

Answered cases to consult:
* Fab0065-siRNA conjugate (Fab, V domains shown, siRNA-linker on a reduced cysteine; chain and residue not stated, also called Fab0065 (BLI conjugate columns)) VH: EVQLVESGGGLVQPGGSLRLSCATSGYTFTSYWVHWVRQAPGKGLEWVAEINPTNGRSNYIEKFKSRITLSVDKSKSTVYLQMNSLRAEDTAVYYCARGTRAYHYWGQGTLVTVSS VL: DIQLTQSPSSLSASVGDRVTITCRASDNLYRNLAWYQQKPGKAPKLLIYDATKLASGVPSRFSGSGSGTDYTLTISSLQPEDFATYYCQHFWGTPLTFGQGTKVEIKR | 2.64
* Fab0072-siRNA conjugate (Fab, V domains shown, siRNA-linker on a reduced cysteine; chain and residue not stated, also called Fab0072 (BLI conjugate columns)) VH: EVQLVESGGGLVQPGGSLRLSCATSGYTFNSYWMHWVRQAPGKGLEWVAEINPTNGRFNYIEKFKSRITLSVDKSKSTVYLQMNSLRAEDTAVYYCARGTRAYHYWGQGTLVTVSS VL: DIQLTQSPSSLSASVGDRVTITCRASDNLYRNLAWYQQKPGKAPKLLIYDARNLASGVPSRFSGSGSGTDYTLTISSLQPEDFATYYCQHFWGTPLTFGQGTKVEIKR | 0.898

Ask: Give the measured Kd of Fab0071-siRNA conjugate (Fab, V domains shown, siRNA-linker on a reduced cysteine; chain and residue not stated, also called Fab0071 (BLI conjugate columns)) VH: EVQLVESGGGLVQPGGSLRLSCATSGYTFNSYWMHWVRQAPGKGLEWVAEINPTNGRTNYIEKFKSRITLSVDKSKSTVYLQMNSLRAEDTAVYYCARGTRAYHYWGQGTLVTVSS VL: DIQLTQSPSSLSASVGDRVTITCRASDGLYSNLAWYQQKPGKAPKLLIYDARNLASGVPSRFSGSGSGTDYTLTISSLQPEDFATYYCQHFWGTPLTFGQGTKVEIKR .
Result: 2.67

Ask: And the next one, Fab0060-siRNA conjugate (Fab, V domains shown, siRNA-linker on a reduced cysteine; chain and residue not stated, also called Fab0060 (BLI conjugate columns)) VH: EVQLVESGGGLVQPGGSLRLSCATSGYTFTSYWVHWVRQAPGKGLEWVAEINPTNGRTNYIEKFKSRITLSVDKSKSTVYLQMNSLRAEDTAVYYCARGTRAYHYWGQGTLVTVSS VL: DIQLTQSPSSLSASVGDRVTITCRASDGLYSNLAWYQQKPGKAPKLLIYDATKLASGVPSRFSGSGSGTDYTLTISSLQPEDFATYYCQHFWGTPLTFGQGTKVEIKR ?
Result: 3.65

Ask: And the next one, Fab0068-siRNA conjugate (Fab, V domains shown, siRNA-linker on a reduced cysteine; chain and residue not stated, also called Fab0068 (BLI conjugate columns)) VH: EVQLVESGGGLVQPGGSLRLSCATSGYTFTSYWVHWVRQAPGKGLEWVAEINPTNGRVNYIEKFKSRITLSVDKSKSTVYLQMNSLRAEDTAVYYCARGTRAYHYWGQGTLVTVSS VL: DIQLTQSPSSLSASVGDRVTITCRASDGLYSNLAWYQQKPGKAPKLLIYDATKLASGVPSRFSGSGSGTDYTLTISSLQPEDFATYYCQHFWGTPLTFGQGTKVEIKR ?
Result: 1.69

Ask: And the next one, Fab0070-siRNA conjugate (Fab, V domains shown, siRNA-linker on a reduced cysteine; chain and residue not stated, also called Fab0070 (BLI conjugate columns)) VH: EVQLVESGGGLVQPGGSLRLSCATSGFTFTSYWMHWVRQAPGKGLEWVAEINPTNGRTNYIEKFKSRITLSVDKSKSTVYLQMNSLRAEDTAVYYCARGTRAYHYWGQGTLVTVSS VL: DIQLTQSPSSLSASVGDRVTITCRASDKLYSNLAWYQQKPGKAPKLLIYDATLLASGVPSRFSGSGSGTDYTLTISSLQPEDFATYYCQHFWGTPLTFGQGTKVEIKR ?
Result: 3.71

Ask: And the next one, Fab0074-siRNA conjugate (Fab, V domains shown, siRNA-linker on a reduced cysteine; chain and residue not stated, also called Fab0074 (BLI conjugate columns)) VH: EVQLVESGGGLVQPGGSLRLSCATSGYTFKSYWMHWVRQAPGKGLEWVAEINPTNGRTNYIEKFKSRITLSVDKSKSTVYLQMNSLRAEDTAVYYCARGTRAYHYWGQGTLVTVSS VL: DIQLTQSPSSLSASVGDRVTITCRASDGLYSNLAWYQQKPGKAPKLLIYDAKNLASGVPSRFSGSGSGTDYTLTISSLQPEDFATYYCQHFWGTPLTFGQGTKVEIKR ?
Result: 2.78

Ask: And the next one, Fab0063-siRNA conjugate (Fab, V domains shown, siRNA-linker on a reduced cysteine; chain and residue not stated, also called Fab0063 (BLI conjugate columns)) VH: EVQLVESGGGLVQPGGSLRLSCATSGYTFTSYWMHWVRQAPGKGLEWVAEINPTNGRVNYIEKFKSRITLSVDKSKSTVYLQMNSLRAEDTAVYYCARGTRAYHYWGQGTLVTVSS VL: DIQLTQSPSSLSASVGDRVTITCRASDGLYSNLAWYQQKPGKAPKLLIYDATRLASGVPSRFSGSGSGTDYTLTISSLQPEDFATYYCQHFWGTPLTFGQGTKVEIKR ?
Result: 2.72
